biological target: recombinant human DPP8 (Homo sapiens); construct: purchased PBS Bioscience; experiment: DPP8 inhibition, fluorogenic substrate Z-Ala-Pro-AMC; type: biochemical; settings: recombinant human DPP8
Sequence (Q6V1X1 whole entry): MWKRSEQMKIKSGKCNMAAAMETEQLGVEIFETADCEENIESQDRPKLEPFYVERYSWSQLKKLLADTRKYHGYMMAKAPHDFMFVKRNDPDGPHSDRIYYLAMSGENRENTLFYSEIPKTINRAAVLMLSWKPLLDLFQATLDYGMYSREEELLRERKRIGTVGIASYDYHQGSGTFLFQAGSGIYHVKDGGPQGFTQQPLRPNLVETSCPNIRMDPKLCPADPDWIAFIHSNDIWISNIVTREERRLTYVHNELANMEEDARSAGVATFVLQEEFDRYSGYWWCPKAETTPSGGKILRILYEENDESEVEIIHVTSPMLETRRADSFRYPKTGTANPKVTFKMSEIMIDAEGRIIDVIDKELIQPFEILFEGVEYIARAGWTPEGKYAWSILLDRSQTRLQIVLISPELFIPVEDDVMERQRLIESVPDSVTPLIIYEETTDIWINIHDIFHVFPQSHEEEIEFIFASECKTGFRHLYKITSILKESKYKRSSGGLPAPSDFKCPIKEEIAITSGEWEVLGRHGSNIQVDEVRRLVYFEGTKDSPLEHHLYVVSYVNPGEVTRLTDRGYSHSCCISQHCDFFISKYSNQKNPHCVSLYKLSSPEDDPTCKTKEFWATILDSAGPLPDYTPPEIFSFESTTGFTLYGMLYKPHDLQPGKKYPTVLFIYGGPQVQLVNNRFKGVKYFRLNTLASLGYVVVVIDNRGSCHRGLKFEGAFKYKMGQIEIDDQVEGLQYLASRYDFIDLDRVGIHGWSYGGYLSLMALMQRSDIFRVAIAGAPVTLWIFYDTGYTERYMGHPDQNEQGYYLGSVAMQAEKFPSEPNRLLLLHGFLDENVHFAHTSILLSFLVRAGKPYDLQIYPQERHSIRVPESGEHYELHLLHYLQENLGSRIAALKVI
pIC50: −log10 of the molar value.
Label rule, in plain words: pIC50 of 5 and up is class 1, under 5 is class 0.

For orientation, consider the following solved cases.
[
  {
    "compound": "N#Cc1ccc(N[C@H]2CCN(CC(=O)N3CCC[C@H]3C#N)C2)c2cccnc12 [Example 247]",
    "system": "recombinant human DPP8 (Homo sapiens)",
    "assigned.category": "class 0"
  },
  {
    "compound": "N#C[C@@H]1CCCN1C(=O)CN1CCC(NC(=O)c2cccc3cccnc23)CC1 [Example 301]",
    "system": "recombinant human DPP8 (Homo sapiens)",
    "assigned.category": "class 0"
  },
  {
    "compound": "CN(c1cc2ccccc2cn1)C1CCN(CC(=O)N2C[C@@H](F)C[C@H]2C#N)CC1 [Example 317]",
    "system": "recombinant human DPP8 (Homo sapiens)",
    "assigned.category": "class 0"
  }
]

Enquiry: Has N#C[C@@H]1C[C@H](F)CN1C(=O)CN1CCC(Nc2cncc3ccncc23)CC1 [Example 360] a recorded pIC50 greater than or equal to 5?
Return: class 0

Enquiry: Is pIC50 at least 5? Consider N#C[C@@H]1C[C@H](F)CN1C(=O)CN1CCC(Nc2cccc3cnc(Cl)cc23)CC1 [Example 352]
Return: class 0

Enquiry: Reported pIC50 reaches at least 5 for N#C[C@@H]1CCCN1C(=O)CN1CC[C@H](Nc2ccc(C(F)(F)F)c3ncccc23)C1 [Example 245] ?
Return: class 0

Enquiry: Identify whether the reported pIC50 of the following compound is 5 or greater: N#C[C@@H]1C[C@H](F)CN1C(=O)CN1CC[C@H](Nc2ccc(F)c3ncccc23)C1 [Example 264]
Return: class 1

Enquiry: Could you verify whether the entry N#C[C@@H]1C[C@H](F)CN1C(=O)CN1CCC(Nc2cncc3ccccc23)CC1 [Example 339] shows pIC50 of no less than 5?
Return: class 0

Enquiry: Dear colleague, could you confirm whether N#C[C@@H]1CCCN1C(=O)CN1CCC(Nc2ccc(C(=O)Nc3ncccn3)c3ncccc23)CC1 [Example 402] has pIC50 at or above 5?
Return: class 1

Enquiry: Entry COc1ccc2ncccc2c1N[C@H]1CCN(CC(=O)N2C[C@@H](F)C[C@H]2C#N)C1 [Example 260] : is its pIC50 no less than 5?
Return: class 0

Enquiry: Item N#C[C@@H]1C[C@H](F)CN1C(=O)CN1CC[C@H](Nc2cccc3ncc(Cl)cc23)C1 [Example 256] with pIC50 of 5 or above?
Return: class 1

Enquiry: pIC50 >= 5 for N#C[C@@H]1C[C@H](F)CN1C(=O)CN1CCC(Nc2ccc(C(=O)Nc3ccccn3)c3ncccc23)CC1 [Example 404] ?
Return: class 1

Enquiry: Hello, I need to know if N#C[C@@H]1C[C@H](F)CN1C(=O)CN1CCC(Nc2ccc(C(=O)Nc3cccnc3)c3ncccc23)CC1 [Example 405] has measured pIC50 not below 5. Thanks!
Return: class 1

Enquiry: Is pIC50 for N#C[C@@H]1CCCN1C(=O)CN1CC[C@@H](Nc2cccc3ncccc23)C1 [Example 161] at or above 5?
Return: class 0

Enquiry: Answer whether pIC50 of COc1cccc2c(OC3CCN(CC(=O)N4C[C@@H](F)C[C@H]4C#N)CC3)cc(C(F)(F)F)nc12 [Example 415] is greater than or equal to 5.
Return: class 0

Enquiry: Can N#C[C@@H]1C[C@H](F)CN1C(=O)CN1CCC(Nc2ccnc3c(C(F)(F)F)cccc23)CC1 [Example 346] be said to have pIC50 at or above 5?
Return: class 1

Enquiry: Is the recorded value of pIC50 equal to or greater than 5 for this compound? N#C[C@@H]1CCCN1C(=O)CN1CC[C@H](Nc2cc(F)cc3ncccc23)C1 [Example 236]
Return: class 0

Where do these numbers come from? They come from patent US11655235B2.
